- Read-out: Interleukin-1 alpha (IL1a), IL1A (gene 3552)
- procedure details: BSK_KF3CT_IL1a: BioMAP Diversity Plus: KF3CT Assay for Interleukin-1 alpha (IL1a) Biomarker Activity (AID 2283070)
- particulars: primary human keratinocytes with fibroblasts; actives raise or lower the signal
- Experimental: BSK_KF3CT is a cell-based, multiplexed-readout assay that uses keratinocytes and foreskin fibroblasts, a human skin primary cell co-culture, with measurements taken at 24 hours after chemical dosing in a 96-well plate.BSK_KF3CT_IL1a is an assay component measured in the BSK_KF3CT assay. It measures IL-1a antibody related to regulation of gene expression using ELISA technology.Data from the assay component BSK_KF3CT_IL1a was analyzed into 1 assay endpoint. […]
Activity calls are given as the source filed them. How the source made its calls: active means hit-call score of the fitted dose curve at least 0.9, where 1 is the maximum; inactive means score below 0.9.
Outcome codes: 1 (active), -1 (inactive)

{"molecule": "O=S(=O)(c1ccccc1)c1ccccc1", "assigned category": -1}
{"molecule": "O=C1C(Cl)=C(Cl)C(=O)C(Cl)=C1Cl", "assigned category": 1}
{"molecule": "CCCOC(=O)c1ccccc1C(=O)OCCC", "assigned category": -1}
{"molecule": "CCc1cc(C)cc(CC)c1-c1c(OC(=O)C(C)(C)C)n2n(c1=O)CCOCC2", "assigned category": -1}
{"molecule": "c1ccc(Nc2ccc3ccccc3c2)cc1", "assigned category": 1}
{"molecule": "CC(=O)/C=C/c1ccccc1", "assigned category": -1}
{"molecule": "C=CCN(CC=C)C(=O)C(Cl)Cl", "assigned category": -1}
{"molecule": "Oc1cc(Cl)ccc1Cl", "assigned category": -1}
{"molecule": "Cc1ccc(OP(=O)(Oc2ccc(C)cc2)Oc2ccc(C)cc2)cc1 (tested in a mixture with another compound)", "assigned category": -1}
{"molecule": "CCCCCCCCCCCC#N", "assigned category": -1}
{"molecule": "Clc1ccc(-c2ccccc2)cc1", "assigned category": -1}
{"molecule": "CCC(C)c1cc([N+](=O)[O-])cc([N+](=O)[O-])c1OC(=O)C=C(C)C (stereo not drawn)", "assigned category": 1}
{"molecule": "COCC(=O)N(c1c(C)cccc1C)N1CCOC1=O", "assigned category": -1}
